src = patent US20210380702A1

Below, each entry is listed alongside its reported pKd.
- Target System: T1, recombinant cynomolgus monkey PD-L1 with a C-terminal myc-myc-hexahistidine tag (cynomolgus monkey (Macaca fascicularis))
- T1 construct: also called MfPD-L1-MMH; MfPD-L1-MMH Monomer
- T1 sequence (chain, as listed by the source limits assumed): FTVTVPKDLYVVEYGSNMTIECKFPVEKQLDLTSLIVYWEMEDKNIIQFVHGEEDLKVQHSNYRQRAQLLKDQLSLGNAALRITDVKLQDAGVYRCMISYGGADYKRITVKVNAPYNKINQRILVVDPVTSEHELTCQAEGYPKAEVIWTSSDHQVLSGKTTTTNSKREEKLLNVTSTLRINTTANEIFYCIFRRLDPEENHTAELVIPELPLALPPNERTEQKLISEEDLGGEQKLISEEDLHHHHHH
- Experiment Notes: SPR (Biacore), mAb captured, 37C
- Procedure: Binding association and dissociation rate constants (kₐ and kd, respectively), equilibrium dissociation constants and dissociation half-lives (KD and t_{1/2}, respectively) of antigen binding to purified anti-PD-L1 monoclonal antibodies were determined using a real-time surface plasmon resonance biosensor assay on a Biacore 4000 instrument. […]
FYI, pKd means -log10 of a concentration in mol per litre.

Below: 3 binders and their reported pKd.
{"columns": ["Binder", "pKd"],
 "data": [
  ["H1H9329P (antibody, human IgG1, V domains shown) VH: EVQLVESGGGLVQSGGSLRLSCAASGFTFSSYWMSWVRQAPGKGLEWVANIKQDGSEKYYVDSVKGRFTISRDNAKNSLYLQMNSLRADDTAVYYCARDDIVVVPAPMGYYYYYFGMDVWGQGTTVTVSS VL: DIQMTQSPSSLSASVGDRVTITCRASQGIRNDLGWYQQKPGKAPKRLIYAASSLQSGVPSRFSGSGSGTEFTLTISSLQPEDFATYYCLQHNSYPYTFGQGTKLEIK", 6.86],
  ["H1H9336P (antibody, human IgG1, V domains shown) VH: EVQLVESGGGLVQPGRSLRLSCAASGFTFDDFAMHWVRQAPGKGLEWVSGISWTGGNMDYANSVKGRFTISREDAKNSLYLQMNSLRAADTALYYCVKDIRGIVATGGAFDIWGRGTMVTVSS VL: DIQMTQSPSSLSASVGDRVTISCRASQTISTYLNWFQQKPGKAPKLLIYVVSSLQSGVPSRFSGSGSGTDFTLTISSLQPEDFATYYCQQSYSTPFTFGPGTKVDIK", 8.86],
  ["H2aM8321N (antibody, mouse IgG2, V domains shown, also called H2M8321N) VH: EERLVESGGDLVQPGGSLRLSCAASGITVGTNYMNWVRQAPGKGLEWVSVISSGGNTHYADSVKGRFIMSRQTSKNTLYLQMNSLETEDTAVYYCARGIRGLDVWGQGTMVTVSS VL: DIQMTQSPSSLSASVGDRVTITCRASQSMSSYLNWYQQKPGRAPKLLIFAASSLQSGVPSRFSGSGSGTDFTLTISSLQPEDFATYYCQQSYSTPPITFGQGTRLEIK", 7.29]
]}

Attention now shifts to the item below.
Qu. Supply measured pKd of H2aM8323N (antibody, mouse IgG2, V domains shown, also called H2M8323N) VH: QVQLVQSGAEVKMPGSSVRVSCKASGGIFSSSTISWVRQAPGQGLEWMGEIIPVFGTVNYAQKFQDRVIFTADESTTTAYMELSSLKSGDTAVYFCARNWGLGSFYIWGQGTMVTVSS VL: EIVLTQSPGTLSLSPGERATLSCRASQSFNFNYLAWYQQKPGQAPRLLIYGASSRATGIPDRFSGSGSGTDFTLTINRLEPEDFGVFYCQQYESAPWTFGQGTKVEIK in your reply.
Ans. 7.53
